Target: RelMtb (truncated, residues 53 to 446) (Mycobacterium tuberculosis, UniProt P9WHG9)
Sequence (P9WHG9 1-394): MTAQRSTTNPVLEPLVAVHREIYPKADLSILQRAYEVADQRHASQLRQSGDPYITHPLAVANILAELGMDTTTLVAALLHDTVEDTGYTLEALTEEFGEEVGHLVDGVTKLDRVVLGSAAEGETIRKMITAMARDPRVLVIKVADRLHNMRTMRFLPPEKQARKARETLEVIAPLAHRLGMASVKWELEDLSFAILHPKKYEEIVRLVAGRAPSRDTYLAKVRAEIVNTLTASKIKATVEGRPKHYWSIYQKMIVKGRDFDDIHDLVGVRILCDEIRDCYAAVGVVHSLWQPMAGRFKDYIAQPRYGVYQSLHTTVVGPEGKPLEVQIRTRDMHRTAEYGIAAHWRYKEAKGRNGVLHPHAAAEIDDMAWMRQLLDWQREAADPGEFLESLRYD
Test: RelMtb enzymatic fluorescence polarization
measurement.kind: IC50

Prompt: Report IC50 for `Nc1nc2c(ncn2[C@@H]2O[C@H](COP(=O)(O)OP(=O)(O)OP(=O)(O)OP(=O)(O)OC[C@H]3O[C@@H](n4cnc5c(N)ncnc54)[C@H](O)[C@@H]3O)[C@@H](O)[C@H]2O)c(=O)[nH]1`
Completion: 1.8 mM

Prompt: Note IC50 for the compound shown: `Nc1ncnc2c1ncn2[C@@H]1O[C@H](COP(=O)(O)CP(=O)(O)OP(=O)(O)O)[C@@H](O)[C@H]1O`
Completion: 6.2 mM

Prompt: // fetch IC50 given entry `Nc1nc2c(ncn2[C@@H]2O[C@H](COP(=O)(O)OP(=O)(O)OP(=O)(O)O)C[C@H]2O)c(=O)[nH]1`
Completion: 4 mM
